measured.target: bacterial NAD synthetase enzyme (Bacillus subtilis, UniProt P08164)
assay.summary: biochemical
Assay type: biochemical
condition.context: compound at 0.2 mM (Table 312A)
Please use TRUE whenever % Inhibition is not below 7%, and FALSE whenever it is.

Could you please find out whether "CN(C)c1ccc(C(=O)OCCCCCCCCc2cc3cc(Oc4ccccc4)ccc3[nH]2)cc1" has % Inhibition that meets 7% or exceeds it? TRUE

Answer whether % Inhibition of "COC(=O)c1ccc2[nH]c(CCC[n+]3ccc4ccccc4c3)cc2c1" is greater than or equal to 7%. FALSE

Check the entry "CC(C)c1ccc2[nH]c(CCCCOC(=O)C(c3ccccc3)c3ccccc3)cc2c1" : does % Inhibition equal or exceed 7%? TRUE

Entry "CCCCc1ccc2[nH]c(CCC[n+]3ccc4ccccc4c3)cc2c1" : is its % Inhibition no less than 7%? TRUE

Entry "COc1ccc2c(ccn2CCCCOC(=O)Cc2ccc([N+](C)(C)C)cc2)c1" : is its % Inhibition no less than 7%? TRUE

Confirm if % Inhibition reported for the compound "O=C(O)c1ccc2[nH]c(CCC[n+]3cccc4ccccc43)cc2c1" is 7% or above. FALSE

State whether the measured % Inhibition reaches 7%, counting equality as reaching it, for "CC(C)c1ccc2[nH]c(CCCCOC(=O)c3ccc(N(C)C)cc3)cc2c1" TRUE

Hi team, for "COC(=O)c1ccc2[nH]c(CCCC[n+]3ccccc3)cc2c1" , is the recorded % Inhibition at or above 7%? FALSE

###

measured.target: bacterial NAD synthetase enzyme (Bacillus subtilis, UniProt P08164)
Sequence (P08164 2-272 limits assumed): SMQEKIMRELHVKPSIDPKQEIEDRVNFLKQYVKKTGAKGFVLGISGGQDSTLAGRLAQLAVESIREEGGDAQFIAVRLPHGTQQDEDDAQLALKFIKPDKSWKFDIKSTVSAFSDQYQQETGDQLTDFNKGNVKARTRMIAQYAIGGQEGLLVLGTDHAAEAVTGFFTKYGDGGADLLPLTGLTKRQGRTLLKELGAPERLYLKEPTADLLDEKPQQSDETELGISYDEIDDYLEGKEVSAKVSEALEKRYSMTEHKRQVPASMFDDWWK
assay.summary: biochemical
Type: biochemical
condition.context: compound at 0.2 mM (Table 312A)
Hi! Just check whether % Inhibition is below 30%. Below gives t, equal or above gives f.

Does O=[N+]([O-])c1ccc2[nH]c(CCCCCCCC[n+]3cccc4ccccc43)cc2c1 [Compound 443] have % Inhibition strictly under 30%? t

A record lists Fc1ccc2[nH]c(CCCCCCCC[n+]3cccc4ccccc43)cc2c1 [Compound 455] . Is its % Inhibition below 30%? t

Is % Inhibition strictly under 30% for the entry O=[N+]([O-])c1cc([N+](=O)[O-])c2[nH]c(CCC[n+]3ccccc3)cc2c1 [Compound 306] ? f

Does the reported % Inhibition of CC(=O)c1ccc2[nH]c(CCCCC[n+]3ccc4ccccc4c3)cc2c1 [Compound 584] stay below 30%? f

Take the compound O=[N+]([O-])c1cc([N+](=O)[O-])c2[nH]c(CCCCCCCC[n+]3ccc4ccccc4c3)cc2c1 [Compound 527] and say whether its % Inhibition is less than 30%. f

Find out if reported % Inhibition for c1ccc(-c2ccc3[nH]c(CCC[n+]4cccc5ccccc54)cc3c2)cc1 [Compound 432] is less than 30% t

Hi there! Is % Inhibition for c1ccc(-c2ccc3[nH]c(CCC[n+]4ccc5ccccc5c4)cc3c2)cc1 [Compound 540] below 30%, do you know? t

# TODO verify % Inhibition < 30% strictly for this compound: COc1ccc2c(ccn2CCCCCCOC(=O)c2ccc[n+](C)c2)c1 [Compound 762] f

Below 30% on % Inhibition? Entry CC(=O)c1ccc2[nH]c(CCC[n+]3cccc4ccccc43)cc2c1 [Compound 474] t

Below 30% on % Inhibition? Entry O=C(O)c1ccc2[nH]c(CCC[n+]3ccc4ccccc4c3)cc2c1 [Compound 600] t

Report whether reported % Inhibition is lower than 30% (strictly) for COc1ccc2[nH]c(CCCCCCC[n+]3ccc4ccccc4c3)cc2c1 [Compound 592] t

Given O=C(O)c1ccc2[nH]c(CCCCCCC[n+]3ccc4ccccc4c3)cc2c1 [Compound 604] , is recorded % Inhibition strictly lower than 30%? f

Given O=C(OCCCCCCCCc1cc2cc(C(F)(F)F)ccc2[nH]1)C(c1ccccc1)c1ccccc1 [Compound 653] , is recorded % Inhibition strictly lower than 30%? t

Identify whether the compound O=[N+]([O-])c1ccc2[nH]c(CCCCCCC[n+]3ccccc3)cc2c1 [Compound 334] records % Inhibition below 30%. f

Field: below-cutoff. Rule: recorded % Inhibition strictly less than 30%. Subject: c1ccc(Oc2ccc3[nH]c(CCCCCCCC[n+]4ccc5ccccc5c4)cc3c2)cc1 [Compound 569] f

Strictly below 30%: is that where % Inhibition of O=C(c1ccccc1)c1ccc2[nH]c(CCCCCCCC[n+]3cccc4ccccc43)cc2c1 [Compound 467] sits? t

Hello, I'm reviewing records and need to know if % Inhibition of COC(=O)c1cc2cc(OC)ccc2n1CCCCCCCCC[n+]1ccccc1 [Compound 246] is below 30%. Could you check? f

Dear reviewer, please state whether O=C(OCCCCCCCCc1cc2cc(Oc3ccccc3)ccc2[nH]1)C(c1ccccc1)c1ccccc1 [Compound 659] has % Inhibition strictly beneath 30%. t

is_below(% Inhibition, 30%) for COc1ccc2c(ccn2CCCCOC(=O)c2ccc[n+](C)c2)c1 [Compound 760] ? t

Lab log: compare recorded % Inhibition with 30%; is it strictly lower for O=C(c1ccccc1)c1ccc2[nH]c(CCCCC[n+]3cccc4ccccc43)cc2c1 [Compound 464] ? t

Identify whether the compound CC(C)c1ccc2[nH]c(CCCCCC[n+]3ccc4ccccc4c3)cc2c1 [Compound 537] records % Inhibition below 30%. t

API: query returns whether the compound falls strictly under 30% in % Inhibition. Query: COC(=O)c1ccc2[nH]c(CCCC[n+]3ccc4ccccc4c3)cc2c1 [Compound 595] t

Identify whether the compound c1ccc(Oc2ccc3[nH]c(CCCCCC[n+]4ccc5ccccc5c4)cc3c2)cc1 [Compound 567] records % Inhibition below 30%. t

In the record for CC(C)c1ccc2[nH]c(CCCCC[n+]3ccc4ccccc4c3)cc2c1 [Compound 536] , is % Inhibition less than 30%? f
